measuredQuantity: melting point (°C)

compound	resultValue
CCCCC1C(=O)N(c2ccccc2)N(c2ccc(O)cc2)C1=O (stereo not drawn)	124
O=C(O)c1cc2nccnc2s1	220
CCC(C(=O)O)c1ccccc1C(=O)O (stereo not drawn)	170
Cc1[nH]c2ccccc2c1C	106
CCOC(=O)c1cc(Cl)c(O)c(Cl)c1	111

[P] Cc1cc(O)cc(C)c1Br
[Q] O=C(O)c1ccc(C(=O)O)c(C(=O)O)c1
[R] C#CCCCCCCCCCCC
[S] Nc1ccc(Br)nc1
Q: Sort entries by melting point from minimum to maximum value. Put the labels in the requested order and list them out.
A: R, S, P, Q
(R: -5 °C, S: 77 °C, P: 115 °C, Q: 231 °C)

###

measuredQuantity: melting point (°C)

Field: example entries. Status: answers known.
compound	resultUnits	melting point
COC(=O)C1=C(C)NC(C)=C(C(=O)OC)C1c1ccco1	°C	186
CCCCCCn1c(=O)c2c(ncn2C)n(C)c1=O	°C	82

[1] CCCCCCCCCCCCCCCC#N
[2] O=C(O)/C=C/c1ccc2ccc(=O)[nH]c2c1
Q: // which entry has the larger melting point value, 1 or 2 ? Pick one; state its label.
A: 2

###

measuredQuantity: melting point (°C)

Field: example entries. Status: answers known.
compound	resultValue
Cc1ccccc1C#N	-13.5
CC(C)(C)c1ccc(OCC#N)cc1	69
O=C(O)c1[nH]c2ccc([N+](=O)[O-])cc2c1-c1ccccc1	290
O=C(OC(=O)C(F)(F)C(F)(F)C(F)(F)F)C(F)(F)C(F)(F)C(F)(F)F	-43
C=C/C=C(C)/C=N/Nc1ccc([N+](=O)[O-])cc1[N+](=O)[O-]	171
Cc1cccc(Cl)c1C=O	37
O=C1C(Br)C2c3ccccc3C(C1Br)C(Br)C(=O)C2Br (centres undefined)	80
Cc1sc(N)nc1-c1ccccc1	110
COc1ccc(N/N=C(\C#N)c2nc(C)c(/N=N/c3ccccc3)s2)cc1	178
COC1=C(OC)C(C(CBr)OC(C)=O)OC1=O (centres undefined)	74

[1] CN(N)c1ccc(Cl)cc1[N+](=O)[O-]
[2] Cc1nc(CC#N)sc1/N=N/c1ccc([N+](=O)[O-])cc1
[3] CC(=O)N1CCN(c2ccc(OCC3COC(Cn4ccnc4)(c4ccc(Cl)cc4Cl)O3)cc2)CC1 (centres undefined)
Q: Sort entries by melting point from minimum to maximum value. Put the labels in the requested order and list them out.
A: 1, 3, 2
(1: 91 °C, 3: 146 °C, 2: 233 °C)

[P] Nc1nsc2ccc([N+](=O)[O-])cc12
[Q] Cc1ccc([N+](=O)[O-])cc1N=C=O
Q: // which entry has the larger melting point value, P or Q ? Pick one; state its label.
A: P
(P: 200 °C, Q: 51 °C)

###

measuredQuantity: melting point (°C)

Field: example entries. Status: answers known.
molecule	resultUnits	resultValue
CSc1ccccc1/N=C/c1cc(C(C)(C)C)cc(C(C)(C)C)c1O	°C	135
CCOC(=O)C1=C(C)N(C)C(=S)NC1c1ccccc1 (stereo not drawn)	°C	147
O=C(C(=O)C(Br)c1ccccc1)C(Br)c1ccccc1 (stereo not drawn)	°C	124
CCc1cccc(N)c1	°C	-8
Nc1ccc2cc[nH]c2c1	°C	73
NCCCOCCCN	°C	151

[P] COc1cc(OC)nc(Sc2cccc3c2C(=O)OC3C)n1 (stereo not drawn)
[Q] CCCCCCCC(=O)c1ccccc1
Q: // which entry has the larger melting point value, P or Q ? Pick one; state its label.
A: P
(P: 163 °C, Q: 22.8 °C)

[a] O=C1Cc2cc(S(=O)(=O)Cl)ccc2N1
[b] Cn1c(=O)c(C2=NNC(=O)C2=Cc2ccccc2)c(O)c2ccccc21
Q: // which entry has the larger melting point value, a or b ? Pick one; state its label.
A: b
(b: 283 °C, a: 160 °C)

[1] NC(=O)CCCNC(=C1C=C(F)C=CC1=O)c1ccc(Cl)cc1
[2] CCCC(C)C(O)CC (stereo not drawn)
Q: Which has the smaller recorded melting point, 1 or 2 ? Pick one; state its label.
A: 2

###

measuredQuantity: melting point (°C)

Field: example entries. Status: answers known.
smilesString	melting point / °C
N#CCCNCCC#N	-6
Cc1nc([N+](=O)[O-])cn1C(C)C	86
COP(=S)(OC)Oc1ccc([N+](=O)[O-])c(C)c1	3.4
CCCCCCCc1ccc(NC(=O)c2ccc(CC)cc2)cc1	102
N#C/C(=N\Nc1ccc2ccccc2c1)c1nc(-c2ccc(Cl)cc2)cs1	218

[1] CCOC(=O)Cc1ccccc1Br
[2] c1ccc(C2=NCCN2)cc1
[3] c1ccc2[nH]ncc2c1
[4] CC(=O)N1CCN(CCN2C3=C(C(=O)CC(C)(C)C3)C(c3ccc(Cl)cc3)C3=C2CC(C)(C)CC3=O)CC1
Q: Sort entries by melting point from minimum to maximum value. Put the labels in the requested order and list them out.
A: 1, 2, 3, 4

###

measuredQuantity: melting point (°C)

compound	melting point, °C
COc1ccccc1-c1ccc(C=C2C(=O)OC(C)(C)OC2=O)o1	147
Nc1ccccc1/C=C/c1ccccc1	106
CC1C=CC(C2CC(=O)OC2=O)C12CC2 (stereo unspecified)	98
CC1=NNC(=O)C1=NNc1ccccc1C(=O)O	239

[1] O=C(O)c1cc(F)c(F)cc1Cl
[2] CSc1ccccc1C(=O)N(NC(=O)c1ccccc1)C(C)(C)C
[3] C=C(Cl)C#N
[4] CCOC(=O)C(O)c1ccccc1 (racemic)
Q: Sort entries by melting point from minimum to maximum value. Put the labels in the requested order and list them out.
A: 3, 4, 1, 2

[1] CC(C)(C)OC(=O)NC(Cc1ccc2ccccc2c1)C(=O)O (stereo unspecified)
[2] Cc1ccccc1/C=C(\C#N)c1nc2ccccc2s1
Q: Which has the smaller recorded melting point, 1 or 2 ? Pick one; state its label.
A: 1
(1: 90 °C, 2: 148 °C)

###

measuredQuantity: melting point (°C)

Field: example entries. Status: answers known.
molecule	melting point, °C
CCC1c2ccccc2N(C)C12C=Cc1cccc([N+](=O)[O-])c1O2 (stereo unspecified)	148
C1CSC2=C(S1)SC(=C1SC3=C(SCCS3)S1)S2	244

[1] Cc1ccc(N/N=C(/C#N)c2nc(-c3ccc(Cl)cc3)cs2)cc1
[2] Cc1cc(C)c(C(C)C)cc1C
Q: // which entry has the larger melting point value, 1 or 2 ? Pick one; state its label.
A: 1
(1: 208 °C, 2: 21 °C)

###

measuredQuantity: melting point (°C)

Field: example entries. Status: answers known.
compound	melting point, °C
Nc1c(Br)cc(Br)c2c1C(=O)c1ccccc1C2=O	227
Cc1ccc(Cl)c(O)c1	46
Cc1nn2c(C)nnc2s1	93
CCN(CC)C(=O)Nc1ccc(OCC(O)CNC(C)(C)C)c(C(C)=O)c1 (configuration not stated)	110
CCOC(=S)SSC(=S)OCC	30
CC(O)(C(=O)c1ccccc1)c1ccccc1 (configuration not stated)	65
CC1(c2ccc(Oc3ccccc3)cc2)OC(=O)N(Nc2ccccc2)C1=O (configuration not stated)	142

[a] CCC(C1CCc2cc(O)ccc2C1)C(C)(C)C(=O)O (configuration not stated)
[b] NC(=O)OCC(O)COc1ccc(Cl)cc1 (configuration not stated)
Q: // which entry has the larger melting point value, a or b ? Pick one; state its label.
A: a

###

measuredQuantity: melting point (°C)

Field: example entries. Status: answers known.
compound	resultValue
O=C1CN(C(=O)OCc2ccccc2)CCN1	120
N#CC1(C#N)C2O[C@H](c3ccccc3)[C@@H](C3=C2CCCC3)C1(C#N)C#N	168
Fc1cc2c(cc1F)Oc1cc(Cl)c(Cl)cc1O2	223

[1] Nc1ccc2nccnc2c1
[2] CC12CCC(C(CC(N)=O)C1=O)C2(C)C (stereo not drawn)
[3] NC1CCC1
[4] FC(F)(F)c1ccc2c(c1)NCCC2
Q: Sort entries by melting point from minimum to maximum value. Put the labels in the requested order and list them out.
A: 3, 4, 2, 1

###

measuredQuantity: melting point (°C)

Field: example entries. Status: answers known.
molecule	measuredQuantity	resultUnits	resultValue
CC(CO)C1=C(O)C(=O)C2=C(CC(O)C3C(C)(C)CCCC23C)C1=O (configuration not stated)	melting point	°C	186
O=C(O)CCc1nc(-c2ccccc2)c(-c2ccccc2)o1	melting point	°C	160
CC1=Nc2ccccc2Sc2c1c(=O)n(-c1ccccc1)c1ccccc21	melting point	°C	231

[P] CC(=O)Nc1cccc(N)c1C(=O)O
[Q] Fc1ccc(Br)nc1
[R] O=[N+]([O-])c1ccccc1SCl
Q: Sort entries by melting point from minimum to maximum value. Put the labels in the requested order and list them out.
A: Q, R, P
(Q: 28.5 °C, R: 74 °C, P: 184 °C)

[1] CCOc1cccc(C(=O)NN)c1
[2] CCOC(=O)Cc1ccncc1
[3] CCCCCCCCCCCC1CCCC1
[4] CCCCCCCC(=O)OC(=O)CCCCCCC
[5] Cc1nc(C)c(Cl)c(O)c1Cl
Q: Please list the entries, largest melting point first. Put the labels in the requested order and list them out.
A: 5, 1, 2, 4, 3
(5: 320 °C, 1: 102 °C, 2: 19 °C, 4: -1 °C, 3: -10 °C)
